experiment: Animal biodistribution of Tc-99m complexes of ligands, no separation of stereoisomers (Example 22); assay type: in vivo, rats; details: 1 hr pi; i.v. rats; mean of 3 animals
% id/organ, Heart overview
PARAMETER: % id/organ, Heart (% id/organ)

* CC(=NO)C(C)NCC(C)(C)CNC(C)C(C)=NO (racemic) [Compound 1] | 0.2
* CC(=NO)C(C)NC(C)CC(C)NC(C)C(C)=NO (centres unmarked) [Compound 12] | 0.3
* CC(=NO)C(C)NCC(C)CNC(C)C(C)=NO (centres unmarked) [Compound 11] | 0.4
* CC(=NO)C(C)NCCCNC(C)C(C)=NO (racemic) [Compound 2] | 0.5
* CC(C)C(=NO)C(C)NCCCNC(C)C(=NO)C(C)C (centres unmarked) [Compound 13] | 0.2
